Below, each entry is listed with its recorded binding signal.
- tested_on: T1, RBFOX1 RRM RbFoxmut (Fox-RRM*) (Homo sapiens, UniProt Q9NWB1 109-208, R118D;E147R;N151S;E152T)
- T1 sequence: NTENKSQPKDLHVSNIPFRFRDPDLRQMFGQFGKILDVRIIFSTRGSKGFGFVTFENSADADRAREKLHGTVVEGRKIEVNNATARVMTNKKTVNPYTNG
- test_method_notes: EMSA; HiTS-Eq, 1 nM pool, 10 min; buffer printed only for the single-RNA assays: 10 mM Tris pH 7.5, 150 mM NaCl, 3.4 mM EDTA, 0.001% NP-40, 30 C
- recorded_conditions: tags: His6 N-terminal (pET28a); label: 5' 32P
Whole data set: some 16,000 sequences, median “ka relative to ugcaugu” near 0.096, cut for the highest 2% near 0.35. This is one part of a sample in which the highest values are shown more often than they occur.

binder	binding signal
CUGGAGA (DNA:RNA) RNA: GGGAGACCGGAAUUCAGAUUGUCCCUGGAGAUUAAAUCCCGUCGUAGCCACCA DNA 1: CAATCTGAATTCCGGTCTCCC DNA 2: TGGTGGCTACGACGGGATT	0.0675 KA relative to UGCAUGU
UGCGAUG (DNA:RNA) RNA: GGGAGACCGGAAUUCAGAUUGUCCUGCGAUGUUAAAUCCCGUCGUAGCCACCA DNA 1: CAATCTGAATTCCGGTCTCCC DNA 2: TGGTGGCTACGACGGGATT	0.493 KA relative to UGCAUGU
UGGGAGA (DNA:RNA) RNA: GGGAGACCGGAAUUCAGAUUGUCCUGGGAGAUUAAAUCCCGUCGUAGCCACCA DNA 1: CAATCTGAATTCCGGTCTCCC DNA 2: TGGTGGCTACGACGGGATT	0.137 KA relative to UGCAUGU
AGAUUGC (DNA:RNA) RNA: GGGAGACCGGAAUUCAGAUUGUCCAGAUUGCUUAAAUCCCGUCGUAGCCACCA DNA 1: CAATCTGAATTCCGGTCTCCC DNA 2: TGGTGGCTACGACGGGATT	0.14 KA relative to UGCAUGU
AUACAAG (DNA:RNA) RNA: GGGAGACCGGAAUUCAGAUUGUCCAUACAAGUUAAAUCCCGUCGUAGCCACCA DNA 1: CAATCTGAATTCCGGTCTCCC DNA 2: TGGTGGCTACGACGGGATT	0.0924 KA relative to UGCAUGU
UGGGAUG (DNA:RNA) RNA: GGGAGACCGGAAUUCAGAUUGUCCUGGGAUGUUAAAUCCCGUCGUAGCCACCA DNA 1: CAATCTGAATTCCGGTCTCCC DNA 2: TGGTGGCTACGACGGGATT	0.691 KA relative to UGCAUGU
UGCGAUC (DNA:RNA) RNA: GGGAGACCGGAAUUCAGAUUGUCCUGCGAUCUUAAAUCCCGUCGUAGCCACCA DNA 1: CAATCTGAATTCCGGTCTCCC DNA 2: TGGTGGCTACGACGGGATT	0.286 KA relative to UGCAUGU
AGAAUGC (DNA:RNA) RNA: GGGAGACCGGAAUUCAGAUUGUCCAGAAUGCUUAAAUCCCGUCGUAGCCACCA DNA 1: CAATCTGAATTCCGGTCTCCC DNA 2: TGGTGGCTACGACGGGATT	0.408 KA relative to UGCAUGU
AAAAUGC (DNA:RNA) RNA: GGGAGACCGGAAUUCAGAUUGUCCAAAAUGCUUAAAUCCCGUCGUAGCCACCA DNA 1: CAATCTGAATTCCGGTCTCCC DNA 2: TGGTGGCTACGACGGGATT	0.0633 KA relative to UGCAUGU
CGUACCU (DNA:RNA) RNA: GGGAGACCGGAAUUCAGAUUGUCCCGUACCUUUAAAUCCCGUCGUAGCCACCA DNA 1: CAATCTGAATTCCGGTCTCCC DNA 2: TGGTGGCTACGACGGGATT	0.099 KA relative to UGCAUGU
GAUCCAA (DNA:RNA) RNA: GGGAGACCGGAAUUCAGAUUGUCCGAUCCAAUUAAAUCCCGUCGUAGCCACCA DNA 1: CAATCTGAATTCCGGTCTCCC DNA 2: TGGTGGCTACGACGGGATT	0.0776 KA relative to UGCAUGU
UGAUUGA (DNA:RNA) RNA: GGGAGACCGGAAUUCAGAUUGUCCUGAUUGAUUAAAUCCCGUCGUAGCCACCA DNA 1: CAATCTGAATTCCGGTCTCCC DNA 2: TGGTGGCTACGACGGGATT	0.209 KA relative to UGCAUGU
CCCUGGA (DNA:RNA) RNA: GGGAGACCGGAAUUCAGAUUGUCCCCCUGGAUUAAAUCCCGUCGUAGCCACCA DNA 1: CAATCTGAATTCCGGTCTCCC DNA 2: TGGTGGCTACGACGGGATT	0.0858 KA relative to UGCAUGU
CACAAUA (DNA:RNA) RNA: GGGAGACCGGAAUUCAGAUUGUCCCACAAUAUUAAAUCCCGUCGUAGCCACCA DNA 1: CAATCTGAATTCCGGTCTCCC DNA 2: TGGTGGCTACGACGGGATT	0.084 KA relative to UGCAUGU
GCCACAA (DNA:RNA) RNA: GGGAGACCGGAAUUCAGAUUGUCCGCCACAAUUAAAUCCCGUCGUAGCCACCA DNA 1: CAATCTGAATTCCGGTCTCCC DNA 2: TGGTGGCTACGACGGGATT	0.0608 KA relative to UGCAUGU
UGGAUGU (DNA:RNA) RNA: GGGAGACCGGAAUUCAGAUUGUCCUGGAUGUUUAAAUCCCGUCGUAGCCACCA DNA 1: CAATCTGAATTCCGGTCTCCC DNA 2: TGGTGGCTACGACGGGATT	0.756 KA relative to UGCAUGU
UCGUUAU (DNA:RNA) RNA: GGGAGACCGGAAUUCAGAUUGUCCUCGUUAUUUAAAUCCCGUCGUAGCCACCA DNA 1: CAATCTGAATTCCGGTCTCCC DNA 2: TGGTGGCTACGACGGGATT	0.11 KA relative to UGCAUGU
